This collection of values is drawn from paper PMC6386767.

- target under test: pig kidney FBPase L56A (Sus scrofa, UniProt P00636, L57A)
- Construct: His6 (C); made in house; host or cells: Escherichia coli BL21 (DE3)
- protocol summary: Malachite Green kinetic assay, L56A mutant
- Format: biochemical
- test context: enzyme L56A
measured attribute: Ki (nM)
One number for each entry, in nM.

Exercise: // returns reported Ki for input O=P(O)(O)OC[C@H]1O[C@@](CO)(OP(=O)(O)O)[C@@H](O)[C@@H]1O [F2,6-BP, fructose-2,6-bisphosphate]
Key: 1250

====

- target under test: pig kidney FBPase M248D (Sus scrofa, UniProt P00636, M249D)
- Construct: His6 (C); made in house; host or cells: Escherichia coli BL21 (DE3)
- Sequence (P00636 1-338 M249D): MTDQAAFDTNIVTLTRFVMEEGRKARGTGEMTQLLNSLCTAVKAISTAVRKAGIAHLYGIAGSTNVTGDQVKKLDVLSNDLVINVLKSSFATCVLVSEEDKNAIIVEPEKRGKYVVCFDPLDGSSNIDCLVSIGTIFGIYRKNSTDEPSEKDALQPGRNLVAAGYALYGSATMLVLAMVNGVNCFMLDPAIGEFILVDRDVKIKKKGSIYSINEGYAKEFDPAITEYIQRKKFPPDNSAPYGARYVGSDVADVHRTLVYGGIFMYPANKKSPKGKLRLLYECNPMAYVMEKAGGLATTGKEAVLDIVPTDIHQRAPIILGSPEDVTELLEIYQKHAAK
- protocol summary: Malachite Green kinetic assay, M248D mutant
- Assay type: biochemical
- test context: enzyme M248D; FBP substrate 10 to 50 µM
Hi there, I'd appreciate the recorded IC50 for every entry that follows.
Numbers only, in µM.

Nc1ncnc2c1ncn2[C@@H]1O[C@H](COP(=O)(O)O)[C@@H](O)[C@H]1O ... 7.2

Exercise: Give the measured IC50 of O=P(O)(O)OC[C@H]1O[C@@](CO)(OP(=O)(O)O)[C@@H](O)[C@@H]1O [F2,6-BP, fructose-2,6-bisphosphate] .
Key: 10.5

====

- target under test: pig kidney FBPase M177A (Sus scrofa, UniProt P00636, M178A)
- Construct: His6 (C); made in house; host or cells: Escherichia coli BL21 (DE3)
- protocol summary: Malachite Green kinetic assay, M177A mutant
- Assay type: biochemical
- test context: enzyme M177A_1; FBP substrate 10 to 50 µM
measured attribute: IC50 (nM)
Answers are plain numbers, in nM.

Nc1ncnc2c1ncn2[C@@H]1O[C@H](COP(=O)(O)O)[C@@H](O)[C@H]1O ... 3500

--- query ---
Exercise: Find IC50 (pig kidney FBPase M177A (Sus scrofa, UniProt P00636, M178A)) for the entry O=P(O)(O)OC[C@H]1O[C@@](CO)(OP(=O)(O)O)[C@@H](O)[C@@H]1O [F2,6-BP, fructose-2,6-bisphosphate]
Key: 750

====

- target under test: pig kidney FBPase L73A (Sus scrofa, UniProt P00636, L74A)
- Construct: His6 (C)
- Sequence (P00636 1-338 L74A): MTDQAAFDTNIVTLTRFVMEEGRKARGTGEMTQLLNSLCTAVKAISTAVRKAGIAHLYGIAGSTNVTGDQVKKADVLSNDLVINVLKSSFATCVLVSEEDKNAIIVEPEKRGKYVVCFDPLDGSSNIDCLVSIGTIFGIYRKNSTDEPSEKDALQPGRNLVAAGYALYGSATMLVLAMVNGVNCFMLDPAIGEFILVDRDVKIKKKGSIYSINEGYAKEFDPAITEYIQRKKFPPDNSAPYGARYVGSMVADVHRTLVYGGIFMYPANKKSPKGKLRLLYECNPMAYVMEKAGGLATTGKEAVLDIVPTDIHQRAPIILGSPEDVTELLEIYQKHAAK
- protocol summary: Malachite Green kinetic assay, L73A mutant
- test context: enzyme L73A; FBP substrate 10 to 50 µM
measured attribute: pIC50
Numbers only, as −log10 of the molar value.

Would you mind giving pIC50 for every compound in the list below?
1. Nc1ncnc2c1ncn2[C@@H]1O[C@H](COP(=O)(O)O)[C@@H](O)[C@H]1O
2. O=P(O)(O)OC[C@H]1O[C@@](CO)(OP(=O)(O)O)[C@@H](O)[C@@H]1O [F2,6-BP, fructose-2,6-bisphosphate]

Key:
5.16
5.14

====

- target under test: pig kidney FBPase WT (Sus scrofa, UniProt P00636)
- Sequence (P00636 1-338): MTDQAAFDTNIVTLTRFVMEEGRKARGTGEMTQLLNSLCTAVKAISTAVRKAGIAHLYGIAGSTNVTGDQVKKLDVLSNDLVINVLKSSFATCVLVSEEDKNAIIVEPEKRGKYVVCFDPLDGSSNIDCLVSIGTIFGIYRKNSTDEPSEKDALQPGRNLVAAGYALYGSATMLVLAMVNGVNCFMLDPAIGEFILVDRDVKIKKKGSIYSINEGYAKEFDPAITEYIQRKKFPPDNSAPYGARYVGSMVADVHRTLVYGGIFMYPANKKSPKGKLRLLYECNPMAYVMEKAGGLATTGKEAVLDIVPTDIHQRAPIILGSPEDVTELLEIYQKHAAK
measured attribute: pIC50
Give bare numbers, as −log10 of the molar value.

Nc1ncnc2c1ncn2[C@@H]1O[C@H](COP(=O)(O)O)[C@@H](O)[C@H]1O [AMP] ... 5.12

In the following, a different compound is considered.
Exercise: Give its pIC50 value. Item: O=P(O)(O)OC[C@H]1O[C@@](CO)(OP(=O)(O)O)[C@@H](O)[C@@H]1O [F2,6-BP, fructose-2,6-bisphosphate]
Key: 5.82

====

Can you tell me IC50 for the items I'm about to list?
- target under test: pig kidney FBPase Y113A (Sus scrofa, UniProt P00636, Y114A)
- Construct: His6 (C); made in house; host or cells: Escherichia coli BL21 (DE3)
- Sequence (P00636 1-338 Y114A): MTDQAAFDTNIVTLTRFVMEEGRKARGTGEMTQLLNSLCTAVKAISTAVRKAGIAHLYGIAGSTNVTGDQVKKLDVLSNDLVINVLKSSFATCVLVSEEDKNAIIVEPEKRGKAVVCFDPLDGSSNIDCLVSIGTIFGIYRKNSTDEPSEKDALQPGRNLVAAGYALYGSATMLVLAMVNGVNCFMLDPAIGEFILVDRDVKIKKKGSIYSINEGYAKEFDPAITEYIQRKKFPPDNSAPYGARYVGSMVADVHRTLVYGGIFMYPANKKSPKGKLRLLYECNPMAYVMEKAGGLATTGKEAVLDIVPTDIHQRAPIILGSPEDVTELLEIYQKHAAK
- protocol summary: Malachite Green kinetic assay, Y113A mutant
- Type: biochemical
- test context: enzyme Y113A_2; FBP substrate 10 to 50 µM
Answers are plain numbers, in µM.

Nc1ncnc2c1ncn2[C@@H]1O[C@H](COP(=O)(O)O)[C@@H](O)[C@H]1O [AMP] ... 55.3

Exercise: Quick check: IC50 of O=P(O)(O)OC[C@H]1O[C@@](CO)(OP(=O)(O)O)[C@@H](O)[C@@H]1O [F2,6-BP, fructose-2,6-bisphosphate] ?
Key: 1.7

====

- target under test: pig kidney FBPase WT (Sus scrofa)
- Sequence (P00636 1-338): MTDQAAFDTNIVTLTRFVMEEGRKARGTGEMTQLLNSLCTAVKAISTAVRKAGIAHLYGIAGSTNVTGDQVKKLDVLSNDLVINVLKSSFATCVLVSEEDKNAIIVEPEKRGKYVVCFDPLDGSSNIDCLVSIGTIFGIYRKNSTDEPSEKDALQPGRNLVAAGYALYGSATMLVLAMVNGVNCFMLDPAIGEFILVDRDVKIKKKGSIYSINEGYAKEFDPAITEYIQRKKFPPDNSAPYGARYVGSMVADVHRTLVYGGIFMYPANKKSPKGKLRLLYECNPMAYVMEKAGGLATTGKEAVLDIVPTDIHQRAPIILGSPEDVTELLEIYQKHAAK
measured attribute: pKi
Numbers only, as −log10 of the molar value.

Exercise: What does the data say about its pKi? Entry: O=P(O)(O)OC[C@H]1O[C@@](CO)(OP(=O)(O)O)[C@@H](O)[C@@H]1O [F2,6-BP, fructose-2,6-bisphosphate]
Key: 6.60
